test system: MS2 coat protein; test: apparent KD of MS2 coat protein; designed switch direction (-1 OFF switch, 1 ON switch): -1; higher = weaker reporter binding; details: input ligand: none
quantity-kind: apparent KD of MS2 coat protein (nM)

>>> quantitative_readout("AUGGGUACUUUCGGAGCGACAUGAGGAUCACCCAUGUAUAUUGAGGAUAUCCACUGCUAAGGACGGGAGAAGGCAGUGUACUGU [Ex NG3 #82] (Eterna round: R96, puzzle: Exclusion NG 3)")
54.2
>>> quantitative_readout("CCGCAACAUGAGGAUCACCCAUGUCAGGAUAUCGUACGUUCGUCGAUAGACGAUCGUACGAGAAGGGUGUGCGG [Mat - Exclusion 1 - Eli Mod - D35] (Eterna round: R97, puzzle: Exclusion 1)")
103
>>> quantitative_readout("CCAAGAUAGGAAGGAUAUUGUACAUGAGGAUCACCCAUGUAAUAAAUGAGGAUCACGGAUGUAGACAAGAAGGUCCGGAUAAGC [Ostracism 5 - Jieux - Exclusion NG 2] (Eterna round: R96, puzzle: Exclusion NG 2)")
45.1
